target: human VEGF165 (REGN110) (human, UniProt P15692 207-395); assay: cell-based or functional assay
Sequence (P15692 other isoform, or with tags, fused parts or gaps): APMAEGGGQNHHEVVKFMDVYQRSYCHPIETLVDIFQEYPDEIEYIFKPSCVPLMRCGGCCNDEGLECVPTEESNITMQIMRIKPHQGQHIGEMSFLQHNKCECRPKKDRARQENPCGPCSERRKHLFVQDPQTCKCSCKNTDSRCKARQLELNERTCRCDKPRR
property-name: IC50 (M), inhibition of VEGFR1 signaling (luciferase), 20 pM VEGF165

The reported value for REGN7483^F (homodimer mini-trap, FabRICATOR cleaved from aflibercept) (receptor, N-linked glycans at N36, N68, N123, N196 (Table C), Disulfide-linked homodimer made by IdeS cleavage of aflibercept; also called dimer mini-trap from FabRICATOR (IdeS) cleavage of REGN3) SDTGRPFVEMYSEIPEIIHMTEGRELVIPCRVTSPNITVTLKKFPLDTLIPDGKRIIWDSRKGFIISNATYKEIGLLTCEATVNGHLYKTNYLTHRQTNTIIDVVLSPSHGIELSVGEKLVLNCTARTELNVGIDFNWEYPSSKHQHKKLVNRDLKTQSGSEMKKFLSTLTIDGVTRSDQGLYTCAASSGLMTKKNSTFVRVHEKDKTHTCPPCPAPELLG in terms of IC50 (M), inhibition of VEGFR1 signaling (luciferase), 20 pM VEGF165 is 1.23e-11 M
